Listed compounds paired with reported log10(IC50)
TESTED_TARGET: human glucocorticoid receptor (GR) complex (Homo sapiens)
Construct: made in house; host or cells: insect expression system (baculovirus lysate)
Sequence (P04150 whole entry, one chain of several): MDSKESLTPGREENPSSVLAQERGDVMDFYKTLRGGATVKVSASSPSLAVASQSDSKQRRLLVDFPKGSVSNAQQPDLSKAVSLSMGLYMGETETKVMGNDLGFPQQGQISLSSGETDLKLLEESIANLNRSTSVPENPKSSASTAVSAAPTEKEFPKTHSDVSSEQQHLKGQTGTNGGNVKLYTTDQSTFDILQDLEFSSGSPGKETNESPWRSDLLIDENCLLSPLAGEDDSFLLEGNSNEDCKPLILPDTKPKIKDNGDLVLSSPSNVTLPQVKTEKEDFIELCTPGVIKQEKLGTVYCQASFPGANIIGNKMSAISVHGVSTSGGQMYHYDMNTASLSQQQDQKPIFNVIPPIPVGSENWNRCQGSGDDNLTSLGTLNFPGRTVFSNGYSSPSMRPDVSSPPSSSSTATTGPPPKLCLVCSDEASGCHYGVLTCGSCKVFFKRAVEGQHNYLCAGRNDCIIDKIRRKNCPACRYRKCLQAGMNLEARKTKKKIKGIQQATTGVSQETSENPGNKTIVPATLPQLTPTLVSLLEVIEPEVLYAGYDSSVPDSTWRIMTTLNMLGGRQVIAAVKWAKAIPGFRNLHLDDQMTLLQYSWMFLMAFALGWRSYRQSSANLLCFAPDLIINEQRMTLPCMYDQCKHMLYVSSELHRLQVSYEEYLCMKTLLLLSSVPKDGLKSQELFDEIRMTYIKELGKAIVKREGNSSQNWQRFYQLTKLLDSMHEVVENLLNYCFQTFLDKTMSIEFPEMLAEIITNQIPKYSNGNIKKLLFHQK
ASSAY_DETAILS: Glucocorticoid receptor fluorescence polarization competitive binding assay;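 also: GR complex expressed in an insect system, wells lacking compound give full signal, excess unlabeled dexamethasone defines the blank, IC50 from logistic curve fit of polarization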
ASSAY_CONTEXT: Table 1; competition with TAMRA-labeled dexamethasone; read-out: GR IC50
// stored as log10 of IC50 expressed in nM

Here is how some compounds turned out for log10(IC50).
COMPOUND: CCCS(=O)(=O)c1cc2cc(CC(O)(CC(C)(C)c3cc(Cl)ccc3S(C)(=O)=O)C(F)(F)F)[nH]c2cn1 (centres unmarked)
TESTED_TARGET: human glucocorticoid receptor (GR) complex (Homo sapiens)
ATTRIBUTE_MEASURED: log10(IC50)
DATA_VALUE: 1.15
--
COMPOUND: CC(C)(C[C@@](O)(Cc1cc2cc(S(C)(=O)=O)ncc2[nH]1)C(F)(F)F)c1ccc(F)cc1S(C)(=O)=O [drawing 10]
TESTED_TARGET: human glucocorticoid receptor (GR) complex (Homo sapiens)
ATTRIBUTE_MEASURED: log10(IC50)
DATA_VALUE: 1.45
--
COMPOUND: CCS(=O)(=O)c1cc2cc(CC(O)(CC(C)(C)c3ccc(C)cc3C(N)=O)C(F)(F)F)[nH]c2cn1 (centres unmarked)
TESTED_TARGET: human glucocorticoid receptor (GR) complex (Homo sapiens)
ATTRIBUTE_MEASURED: log10(IC50)
DATA_VALUE: 1.90
--
COMPOUND: CC(C)S(=O)(=O)c1cc2cc(CC(O)(CC(C)(C)c3cc(F)ccc3S(C)(=O)=O)C(F)(F)F)[nH]c2cn1 (centres unmarked)
TESTED_TARGET: human glucocorticoid receptor (GR) complex (Homo sapiens)
ATTRIBUTE_MEASURED: log10(IC50)
DATA_VALUE: 1.85
--
COMPOUND: CC(C)(CC(O)(Cc1cc2cc(S(C)(=O)=O)ncc2[nH]1)C(F)(F)F)c1cc(F)ccc1S(C)(=O)=O (centres unmarked)
TESTED_TARGET: human glucocorticoid receptor (GR) complex (Homo sapiens)
ATTRIBUTE_MEASURED: log10(IC50)
DATA_VALUE: 1.28
--
COMPOUND: Cc1ccc(C(C)(C)CC(O)(Cc2cc3nc(S(C)(=O)=O)ccc3[nH]2)C(F)(F)F)c(C(N)=O)c1 (centres unmarked)
TESTED_TARGET: human glucocorticoid receptor (GR) complex (Homo sapiens)
ATTRIBUTE_MEASURED: log10(IC50)
DATA_VALUE: 1.76
--
COMPOUND: CCS(=O)(=O)c1cc2cc(C[C@](O)(CC(C)(C)c3cc(Cl)cc4c3OCC4)C(F)(F)F)[nH]c2cn1
TESTED_TARGET: human glucocorticoid receptor (GR) complex (Homo sapiens)
ATTRIBUTE_MEASURED: log10(IC50)
DATA_VALUE: 0.85

Query: Fill blank: measured log10(IC50) of the compound CCS(=O)(=O)c1cc2cc(CC(O)(CC(C)(C)c3ccccc3S(C)(=O)=O)C(F)(F)F)[nH]c2cn1 (centres unmarked) is ____.
Result: 1.64

----------
ASSAY_DETAILS: High throughput solubility
Type: physicochemical
ASSAY_CONTEXT: aqueous buffer (pION system solution), pH 7, aqueous buffer, kinetic from dmso stock
Decision: solubility >= 40 µg/mL yields satisfied, all other cases yield not satisfied.

COMPOUND: CC(C)(C[C@@](O)(Cc1cc2cc(S(C)(=O)=O)ncc2[nH]1)C(F)(F)F)c1ccccc1C(N)=O
DISCRETE_LABEL: not satisfied

# ---- query compound ----
Query: Hello, I need to know if CC(C)(CC(O)(Cc1cc2cc(S(C)(=O)=O)ncc2[nH]1)C(F)(F)F)c1ccc(F)cc1C(N)=O (centres unmarked) has measured solubility not below 40 µg/mL. Thanks!
Result: satisfied

----------
In this section, each of the compounds is paired with its reported half-life.
ASSAY_DETAILS: Human microsomal stability
Type: in vitro ADME
ASSAY_CONTEXT: pH 7.4; human liver microsomes; read-out: human liver microsome half life

COMPOUND: CC(C)(CC(O)(Cc1cc2cc(S(C)(=O)=O)ncc2[nH]1)C(F)(F)F)c1ccc(F)cc1C(N)=O (centres unmarked)
half-life: 45 min

COMPOUND: CC(C)(C[C@@](O)(Cc1cc2cc(S(C)(=O)=O)ncc2[nH]1)C(F)(F)F)c1ccc(F)cc1S(C)(=O)=O [drawing 100]
half-life: 14 min

Query: Any idea what its half-life is? The compound is CC(C)(C[C@@](O)(Cc1cc2cc(S(C)(=O)=O)ncc2[nH]1)C(F)(F)F)c1ccc(Cl)cc1S(C)(=O)=O [drawing 97]
Result: 17 min

Query: half-life for CC(C)(C[C@@](O)(Cc1cc2cc(S(C)(=O)=O)ncc2[nH]1)C(F)(F)F)c1cc(Cl)cc2c1OCC2 [drawing 95] ?
Result: < 3 min

Query: So what's the measured half-life for this one? CCS(=O)(=O)c1cc2cc(CC(O)(CC(C)(C)c3ccc(F)cc3S(C)(=O)=O)C(F)(F)F)[nH]c2cn1 (centres unmarked) [drawing 99]
Result: 7 min

----------
TESTED_TARGET: human recombinant CYP3A4 (Homo sapiens)
ASSAY_DETAILS: Cytochrome P450 inhibition assay (substrate 7-benzyloxy-4-(trifluoromethyl)coumarin)
Assay type: in vitro ADME
ASSAY_CONTEXT: Table 3; read-out: CYP3A4 Inhibition IC50
ATTRIBUTE_MEASURED: IC50
In your response, the unit should come after the numeric value.

Query: Look at this compound and give its reported IC50. CC(C)(C[C@@](O)(Cc1cc2cc(S(C)(=O)=O)ncc2[nH]1)C(F)(F)F)c1cc(Cl)cc2c1OCC2 [drawing 95]
Result: 6.5 µM

----------
TESTED_TARGET: Potassium Channel HERG (Homo sapiens)
Sequence (Q12809 whole entry): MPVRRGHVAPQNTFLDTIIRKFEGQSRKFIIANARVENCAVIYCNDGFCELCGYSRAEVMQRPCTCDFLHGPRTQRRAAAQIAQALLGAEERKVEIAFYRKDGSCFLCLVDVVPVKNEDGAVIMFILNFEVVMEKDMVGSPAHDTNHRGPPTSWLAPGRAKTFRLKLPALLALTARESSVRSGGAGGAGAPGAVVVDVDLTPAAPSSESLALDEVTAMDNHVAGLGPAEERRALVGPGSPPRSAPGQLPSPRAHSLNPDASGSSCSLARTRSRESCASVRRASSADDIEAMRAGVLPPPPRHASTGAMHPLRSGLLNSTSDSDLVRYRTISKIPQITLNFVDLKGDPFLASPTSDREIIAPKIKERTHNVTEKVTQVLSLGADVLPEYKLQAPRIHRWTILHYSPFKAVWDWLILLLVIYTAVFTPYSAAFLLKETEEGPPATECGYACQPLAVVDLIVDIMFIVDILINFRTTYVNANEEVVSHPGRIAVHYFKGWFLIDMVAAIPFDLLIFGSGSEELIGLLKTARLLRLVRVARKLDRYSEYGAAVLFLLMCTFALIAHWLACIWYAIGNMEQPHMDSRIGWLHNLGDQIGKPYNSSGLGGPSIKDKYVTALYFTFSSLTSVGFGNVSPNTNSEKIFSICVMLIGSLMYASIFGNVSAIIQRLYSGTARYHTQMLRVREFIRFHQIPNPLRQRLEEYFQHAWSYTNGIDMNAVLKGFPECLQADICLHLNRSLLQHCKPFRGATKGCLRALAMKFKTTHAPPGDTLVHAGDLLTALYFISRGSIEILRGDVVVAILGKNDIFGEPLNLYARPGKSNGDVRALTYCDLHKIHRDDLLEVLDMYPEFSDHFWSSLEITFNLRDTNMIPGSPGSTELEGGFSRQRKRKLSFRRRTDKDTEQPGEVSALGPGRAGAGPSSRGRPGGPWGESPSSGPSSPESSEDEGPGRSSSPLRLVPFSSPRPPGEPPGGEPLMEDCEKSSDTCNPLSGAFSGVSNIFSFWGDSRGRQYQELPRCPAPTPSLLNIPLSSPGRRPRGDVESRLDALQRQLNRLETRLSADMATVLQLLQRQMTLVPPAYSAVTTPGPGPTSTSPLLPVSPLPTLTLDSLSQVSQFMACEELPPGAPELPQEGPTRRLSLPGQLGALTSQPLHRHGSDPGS
ASSAY_DETAILS: hERG assays (either hERG binding assay or hERG patch clamp assay)
ASSAY_CONTEXT: Table 3, not specified per compound
pIC50: −log10 of the molar value.
Overview of recorded pIC50 for various compounds

Field: example entries. Status: answers known.
COMPOUND: CC(C)(C[C@@](O)(Cc1cc2cc(S(C)(=O)=O)ncc2[nH]1)C(F)(F)F)c1ccc(F)cc1S(C)(=O)=O [drawing 100]
DATA_VALUE: < 4.52
//
COMPOUND: CCS(=O)(=O)c1cc2cc(CC(O)(CC(C)(C)c3ccc(F)cc3S(C)(=O)=O)C(F)(F)F)[nH]c2cn1 (stereo not shown) [drawing 99]
DATA_VALUE: < 4.52
//
COMPOUND: CC(C)(CC(O)(Cc1cc2cc(S(C)(=O)=O)ncc2[nH]1)C(F)(F)F)c1ccc(F)cc1C(N)=O (stereo not shown)
DATA_VALUE: < 4.52
//
COMPOUND: CC(C)(C[C@@](O)(Cc1cc2cc(S(C)(=O)=O)ncc2[nH]1)C(F)(F)F)c1ccc(Cl)cc1S(C)(=O)=O [drawing 97]
DATA_VALUE: < 5.00
//
COMPOUND: CCS(=O)(=O)c1cc2cc(CC(O)(CC(C)(C)c3ccc(Cl)cc3S(C)(=O)=O)C(F)(F)F)[nH]c2cn1 (stereo not shown) [drawing 98]
DATA_VALUE: < 5.00
//
COMPOUND: CC(C)(C[C@@](O)(Cc1cc2cc(S(C)(=O)=O)ncc2[nH]1)C(F)(F)F)c1cc(Cl)cc2c1OCC2 [drawing 95]
DATA_VALUE: 5.03

Please look at the following compound next.
Query: Need pIC50 of CC(C)(C[C@@](O)(Cc1cc2cc(S(C)(=O)=O)ncc2[nH]1)C(F)(F)F)c1ccccc1C(N)=O , thanks.
Result: < 4.52

----------
ASSAY_DETAILS: Human microsomal stability
Type: in vitro ADME
ASSAY_CONTEXT: pH 7.4; human liver microsomes; read-out: human liver microsome half life
ATTRIBUTE_MEASURED: half-life (min)
The figure you give is taken to be in min; do not add the unit.

COMPOUND: CC(C)(C[C@@](O)(Cc1cc2cc(S(C)(=O)=O)ncc2[nH]1)C(F)(F)F)c1ccccc1C(N)=O
half-life [min]: 44

Query: Any idea what half-life was measured for CCS(=O)(=O)c1cc2cc(CC(O)(CC(C)(C)c3ccc(Cl)cc3S(C)(=O)=O)C(F)(F)F)[nH]c2cn1 (stereo not shown) [drawing 98] ?
Result: 11

----------
TESTED_TARGET: human recombinant CYP3A4 (Homo sapiens, UniProt P08684)
Sequence (P08684 whole entry): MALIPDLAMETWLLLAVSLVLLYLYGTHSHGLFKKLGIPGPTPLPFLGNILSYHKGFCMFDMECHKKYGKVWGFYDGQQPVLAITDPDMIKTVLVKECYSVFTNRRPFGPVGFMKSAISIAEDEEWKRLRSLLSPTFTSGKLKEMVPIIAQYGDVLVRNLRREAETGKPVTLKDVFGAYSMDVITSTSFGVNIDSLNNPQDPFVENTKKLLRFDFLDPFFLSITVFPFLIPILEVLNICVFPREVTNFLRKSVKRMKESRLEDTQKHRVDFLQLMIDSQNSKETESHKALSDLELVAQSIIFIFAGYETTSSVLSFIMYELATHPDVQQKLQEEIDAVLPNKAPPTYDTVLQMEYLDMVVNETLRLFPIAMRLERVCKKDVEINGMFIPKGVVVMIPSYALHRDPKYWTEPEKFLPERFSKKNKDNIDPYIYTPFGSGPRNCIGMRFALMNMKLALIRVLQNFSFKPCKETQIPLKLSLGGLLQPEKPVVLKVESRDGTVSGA
ASSAY_DETAILS: Cytochrome P450 inhibition assay (substrate 7-benzyloxy-4-(trifluoromethyl)coumarin);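 also: compounds preincubated at least 10 min at 37 °C before adding enzyme plus substrate, reaction run 30 min at 37 °C, ketoconazole standard curve on every plate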
Format: in vitro ADME
ASSAY_CONTEXT: Table 1; read-out: CYP3A4 IC50
Parameter: IC50. Scope: all listed entries.

Solved cases below.
COMPOUND: CC(C)(CC(O)(Cc1cc2cc(S(C)(=O)=O)ncc2[nH]1)C(F)(F)F)c1cccc2ccsc12 (centres unmarked)
TESTED_TARGET: human recombinant CYP3A4 (Homo sapiens, UniProt P08684)
DATA_VALUE: 2.7 µM
--
COMPOUND: CC(C)(C[C@@](O)(Cc1cc2nc(S(C)(=O)=O)ncc2[nH]1)C(F)(F)F)c1ccc(F)cc1C(N)=O
TESTED_TARGET: human recombinant CYP3A4 (Homo sapiens, UniProt P08684)
DATA_VALUE: 11 µM
--
COMPOUND: CC(C)(C[C@@](O)(Cc1cc2nc(S(C)(=O)=O)ccc2[nH]1)C(F)(F)F)c1cccc(Br)c1
TESTED_TARGET: human recombinant CYP3A4 (Homo sapiens, UniProt P08684)
DATA_VALUE: 15 µM
--
COMPOUND: CC(C)(CC(O)(Cc1cc2cc(S(C)(=O)=O)ncc2[nH]1)C(F)(F)F)c1ccccc1Br (centres unmarked)
TESTED_TARGET: human recombinant CYP3A4 (Homo sapiens, UniProt P08684)
DATA_VALUE: 23 µM

Query: Which IC50 reading was recorded for the compound CC(C)(CC(O)(Cc1cc2cc(S(C)(=O)=O)ncc2[nH]1)C(F)(F)F)c1cccc(F)c1S(C)(=O)=O (centres unmarked) ?
Result: > 30 µM

Query: For CC(C)S(=O)(=O)c1cc2cc(CC(O)(CC(C)(C)c3ccc(F)cc3S(C)(=O)=O)C(F)(F)F)[nH]c2cn1 (centres unmarked) , what is its reported IC50?
Result: 19 µM

Query: I have this compound here, CC(C)(CC(O)(Cc1cc2nc(S(C)(=O)=O)ccc2[nH]1)C(F)(F)F)c1cc(Cl)ccc1S(C)(=O)=O (centres unmarked) , and I need its recorded IC50.
Result: 4.1 µM

Query: Name the recorded IC50 for CC(C)S(=O)(=O)c1cc2cc(CC(O)(CC(C)(C)c3ccccc3S(C)(=O)=O)C(F)(F)F)[nH]c2cn1 (centres unmarked) .
Result: 22 µM
